Target: Tlp3 LBD (Campylobacter jejuni subsp. jejuni)
Experiment: Isothermal titration calorimetry (ITC)
Format: binding, C. jejuni strain NCTC 11168
Settings: Kd, 25 °C, 10 µM Tlp3 LBD, single-site model; NB = no binding detected by ITC
Lab note: compare Kd with 500 µM, writing Met if less and Not met if equal or more.

[Q] Here's an entry: CC(C)C[C@H](N)C(=O)O . Is its Kd below 500 µM?
[A] Met

[Q] Does the reported Kd of the following molecule sit strictly below 500 µM? N[C@@H](Cc1ccccc1)C(=O)O
[A] Not met

[Q] Dear colleague, could you confirm whether Kd of CCC[C@@H](C)C(N)C(=O)O (stereo in doubt) falls below 500 µM? Thanks.
[A] Met

[Q] Consider the molecule CCC(C)(C)[C@H](N)C(=O)O . Is its Kd strictly less than 500 µM?
[A] Met

[Q] Input C[C@H](N)C(=O)O ; condition: Kd strictly below 500 µM. Does it hold?
[A] Not met

[Q] Please indicate whether the reported Kd of CCC[C@@H](N)C(=O)O is strictly below 500 µM.
[A] Met

[Q] Lab log: compare recorded Kd with 500 µM; is it strictly lower for CC(C)[C@H](C)[C@H](N)C(=O)O ?
[A] Met

[Q] Does CC(C)[C@H](N)C(=O)O have Kd strictly under 500 µM?
[A] Met

----------
Molecular target: Tlp3 LBD (Campylobacter jejuni subsp. jejuni, UniProt Q0P864)
Sequence (Q0P864 entry or part of it): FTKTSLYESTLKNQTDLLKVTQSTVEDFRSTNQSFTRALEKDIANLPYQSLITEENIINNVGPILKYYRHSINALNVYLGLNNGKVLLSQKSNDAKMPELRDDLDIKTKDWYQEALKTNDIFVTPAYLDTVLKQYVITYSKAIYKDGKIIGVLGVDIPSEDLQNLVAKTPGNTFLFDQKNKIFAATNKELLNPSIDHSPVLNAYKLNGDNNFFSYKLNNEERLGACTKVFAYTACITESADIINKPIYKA
Assay: Isothermal titration calorimetry (ITC)
Format: binding, C. jejuni strain NCTC 11168
Details: ITC binding enthalpy, 25 °C
List of ∆H values.
Respond numerically; units are kcal/mol and should not be typed.

Compound Structure String: CC(C)[C@H](N)C(=O)O
Property Measured: ∆H
Reported Result: -4.4

[Q] ∆H lookup needed for N[C@@H](Cc1ccccc1)C(=O)O , thanks.
[A] -5.9

[Q] Form field: reported ∆H of CC(C)C[C@H](N)C(=O)O
[A] -4.6

----------
Biological target: Tlp3 LBD (Campylobacter jejuni subsp. jejuni, UniProt Q0P864)
Assay: Isothermal titration calorimetry (ITC)
Assay type: binding, C. jejuni strain NCTC 11168
Conditions: ITC binding entropy, 25 °C
As shown below, each of these compounds has a reported ∆S value.
Could you give me the number in cal mol^−1 deg^−1? Just the number is fine.

Compound: CCC(C)(C)[C@H](N)C(=O)O
Property Measured: ∆S
Reported Result: −4.03

Compound: CCC[C@@H](C)C(N)C(=O)O (stereo in doubt)
Property Measured: ∆S
Reported Result: −4.77

Compound: CC(C)[C@H](C)[C@H](N)C(=O)O
Property Measured: ∆S
Reported Result: −1.01

Shift focus to the following entry.
[Q] Form: Entry = CC(C)C[C@H](N)C(=O)O | System = Tlp3 LBD (Campylobacter jejuni subsp. jejuni, UniProt Q0P864) | ∆S = ____
[A] 2.9
